- System: UACC-62
- assay-method-text: NCI tumour cell line growth inhibition, 48 h
Calls of active or inactive are those of the source. No stated cut-off is given here; in the data, active = GI50 up to about 1.1 µM and inactive = higher.
// allowed return values: active, inactive

Field: outcome | Entry: N=C(CCl)NC1CN2CCC1CC2 (stereo not given)
inactive

I would be grateful if you could indicate the recorded call for C=CC(O)C#Cc1cnc(OC)nc1OC (stereo not given) .
inactive

Field: outcome | Entry: NNC(=S)N/N=C(\CC1OC(=O)c2ccccc21)c1ccccc1O (stereo not given)
inactive

// return assay outcome for `C/C=C/COC(=O)CO[N+](=O)[O-]`
inactive

# lookup: test call for COc1cccc2c1C(=O)c1c(O)c3c(c(O)c1C2=O)C[C@@](O)(C(=O)CO)C[C@@H]3OC1CC(N(C)C)C(O)C(C)O1 (stereo not given in full)
active
